target-or-test-system: Voltage-dependent L-type calcium channel subunit alpha-1C (Rattus norvegicus); also: assay procedure not described here
Sequence (P22002 whole entry): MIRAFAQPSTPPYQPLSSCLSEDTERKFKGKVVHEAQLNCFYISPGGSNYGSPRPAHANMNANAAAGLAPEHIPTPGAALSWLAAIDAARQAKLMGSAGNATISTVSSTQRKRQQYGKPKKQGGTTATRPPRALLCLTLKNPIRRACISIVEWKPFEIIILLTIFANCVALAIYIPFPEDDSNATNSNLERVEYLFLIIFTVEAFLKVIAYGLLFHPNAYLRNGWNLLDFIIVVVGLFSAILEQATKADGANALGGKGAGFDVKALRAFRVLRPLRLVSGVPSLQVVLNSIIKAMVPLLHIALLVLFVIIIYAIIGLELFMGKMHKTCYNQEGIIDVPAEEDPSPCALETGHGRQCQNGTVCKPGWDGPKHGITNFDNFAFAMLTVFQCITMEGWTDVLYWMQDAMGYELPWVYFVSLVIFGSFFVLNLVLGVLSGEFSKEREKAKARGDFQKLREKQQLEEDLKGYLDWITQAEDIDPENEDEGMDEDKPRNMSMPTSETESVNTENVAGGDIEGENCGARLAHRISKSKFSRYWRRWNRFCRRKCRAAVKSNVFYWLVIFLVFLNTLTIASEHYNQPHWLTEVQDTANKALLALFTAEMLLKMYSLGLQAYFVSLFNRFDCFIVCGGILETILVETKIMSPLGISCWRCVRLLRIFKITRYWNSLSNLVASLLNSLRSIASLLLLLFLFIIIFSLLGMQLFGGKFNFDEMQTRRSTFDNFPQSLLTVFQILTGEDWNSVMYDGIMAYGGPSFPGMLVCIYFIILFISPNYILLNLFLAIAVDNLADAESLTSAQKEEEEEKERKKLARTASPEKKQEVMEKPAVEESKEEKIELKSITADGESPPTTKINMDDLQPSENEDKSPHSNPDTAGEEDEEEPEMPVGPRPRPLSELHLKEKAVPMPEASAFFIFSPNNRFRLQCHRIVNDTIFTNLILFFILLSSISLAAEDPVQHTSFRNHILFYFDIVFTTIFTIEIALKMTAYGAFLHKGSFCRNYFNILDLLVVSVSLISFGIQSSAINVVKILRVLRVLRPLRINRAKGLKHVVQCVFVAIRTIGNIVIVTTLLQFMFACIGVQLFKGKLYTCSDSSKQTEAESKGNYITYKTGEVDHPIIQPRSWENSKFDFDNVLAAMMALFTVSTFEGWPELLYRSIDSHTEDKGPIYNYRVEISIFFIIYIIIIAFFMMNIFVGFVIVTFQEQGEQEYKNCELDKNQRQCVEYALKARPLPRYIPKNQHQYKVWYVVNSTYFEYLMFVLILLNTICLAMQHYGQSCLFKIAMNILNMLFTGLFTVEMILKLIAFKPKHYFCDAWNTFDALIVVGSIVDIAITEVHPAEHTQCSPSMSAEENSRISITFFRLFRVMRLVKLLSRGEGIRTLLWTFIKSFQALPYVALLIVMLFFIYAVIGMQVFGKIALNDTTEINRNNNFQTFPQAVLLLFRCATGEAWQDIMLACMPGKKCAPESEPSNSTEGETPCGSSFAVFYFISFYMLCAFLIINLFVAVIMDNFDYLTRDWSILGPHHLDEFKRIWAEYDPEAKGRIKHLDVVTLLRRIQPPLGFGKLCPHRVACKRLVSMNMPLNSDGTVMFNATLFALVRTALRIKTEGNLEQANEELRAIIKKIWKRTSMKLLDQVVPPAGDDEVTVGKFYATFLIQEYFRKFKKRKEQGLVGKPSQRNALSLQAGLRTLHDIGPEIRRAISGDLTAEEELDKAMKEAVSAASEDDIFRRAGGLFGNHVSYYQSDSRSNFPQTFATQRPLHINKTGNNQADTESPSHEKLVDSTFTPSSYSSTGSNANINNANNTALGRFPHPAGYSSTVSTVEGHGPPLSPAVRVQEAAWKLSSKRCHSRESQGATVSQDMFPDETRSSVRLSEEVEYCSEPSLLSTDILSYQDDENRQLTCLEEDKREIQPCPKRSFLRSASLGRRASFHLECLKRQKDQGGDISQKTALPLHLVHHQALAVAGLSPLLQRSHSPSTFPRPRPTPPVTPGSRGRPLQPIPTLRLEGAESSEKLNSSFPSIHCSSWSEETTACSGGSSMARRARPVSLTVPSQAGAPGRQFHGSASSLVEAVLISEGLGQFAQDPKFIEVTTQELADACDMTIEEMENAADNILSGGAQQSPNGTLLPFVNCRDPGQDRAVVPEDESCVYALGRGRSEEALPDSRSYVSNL
Assay type: functional
property-name: AC50

These solved cases illustrate the format of a correct answer.
# molecule, AC50
rows = [
    ("CC1OC2(CS1)CN1CCC2CC1 (configuration not stated)", "> 10 µM"),
    ("C/C(=C\\C(=O)OCCCCCCCCC(=O)O)C[C@@H]1OC[C@H](C[C@@H]2O[C@H]2[C@@H](C)[C@H](C)O)[C@@H](O)[C@H]1O", "> 10 µM"),
    ("CC12CC3CC(C)(C1)CC(N)(C3)C2 [MEMANTINE]", "> 10 µM"),
]

Give AC50 for each of the items listed below.
1. CC(C)(C)C(=O)OCC(=O)[C@H]1CC[C@H]2[C@@H]3CCC4=CC(=O)CC[C@]4(C)[C@H]3CC[C@]12C [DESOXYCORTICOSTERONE PIVALATE]
2. C=C1/C(=C\C=C2/CCC[C@]3(C)[C@@H]([C@H](C)/C=C/[C@@H](O)C4CC4)CC[C@@H]23)C[C@@H](O)C[C@@H]1O
3. [H]/N=C(/N)N/C(=N/[H])NCCc1ccccc1
4. CCCCCC(=O)O[C@]1(C(C)=O)CC[C@H]2[C@@H]3CCC4=CC(=O)CC[C@]4(C)[C@H]3CC[C@@]21C [HYDROXYPROGESTERONE CAPROATE]

Result string:
["> 10 µM", "> 30 µM", "> 30 µM", "> 30 µM"]

----------
Recorded AC50 values (5-hydroxytryptamine receptor 1A (Homo sapiens, UniProt P08908)) are given below.

# compound, target-or-test-system, result
records = [
    ("COc1cc2nc(N3CCN(C(=O)C4CCCO4)CC3)nc(N)c2cc1OC (centres undefined) [TERAZOSIN]", "5-hydroxytryptamine receptor 1A (Homo sapiens, UniProt P08908)", "> 10 µM"),
    ("CC(N)C(O)c1ccccc1 (centres undefined) [PHENYLPROPANOLAMINE]", "5-hydroxytryptamine receptor 1A (Homo sapiens, UniProt P08908)", "> 10 µM"),
    ("C=C[C@H]1C[N@@]2CC[C@H]1C[C@@H]2[C@@H](O)c1ccnc2ccc(OC)cc12 [QUINIDINE]", "5-hydroxytryptamine receptor 1A (Homo sapiens, UniProt P08908)", "> 10 µM"),
]

Query string: Requested read-out: AC50. Entry: CC(=O)OCC(=O)[C@@]1(O)[C@H](C)C[C@H]2[C@@H]3CCC4=CC(=O)C=C[C@]4(C)[C@@]3(F)[C@@H](O)C[C@@]21C [DEXAMETHASONE ACETATE]
Result string: > 10 µM

----------
target-or-test-system: Androgen receptor (Rattus norvegicus); also: assay procedure not described here
Sequence (P15207 whole entry S389L): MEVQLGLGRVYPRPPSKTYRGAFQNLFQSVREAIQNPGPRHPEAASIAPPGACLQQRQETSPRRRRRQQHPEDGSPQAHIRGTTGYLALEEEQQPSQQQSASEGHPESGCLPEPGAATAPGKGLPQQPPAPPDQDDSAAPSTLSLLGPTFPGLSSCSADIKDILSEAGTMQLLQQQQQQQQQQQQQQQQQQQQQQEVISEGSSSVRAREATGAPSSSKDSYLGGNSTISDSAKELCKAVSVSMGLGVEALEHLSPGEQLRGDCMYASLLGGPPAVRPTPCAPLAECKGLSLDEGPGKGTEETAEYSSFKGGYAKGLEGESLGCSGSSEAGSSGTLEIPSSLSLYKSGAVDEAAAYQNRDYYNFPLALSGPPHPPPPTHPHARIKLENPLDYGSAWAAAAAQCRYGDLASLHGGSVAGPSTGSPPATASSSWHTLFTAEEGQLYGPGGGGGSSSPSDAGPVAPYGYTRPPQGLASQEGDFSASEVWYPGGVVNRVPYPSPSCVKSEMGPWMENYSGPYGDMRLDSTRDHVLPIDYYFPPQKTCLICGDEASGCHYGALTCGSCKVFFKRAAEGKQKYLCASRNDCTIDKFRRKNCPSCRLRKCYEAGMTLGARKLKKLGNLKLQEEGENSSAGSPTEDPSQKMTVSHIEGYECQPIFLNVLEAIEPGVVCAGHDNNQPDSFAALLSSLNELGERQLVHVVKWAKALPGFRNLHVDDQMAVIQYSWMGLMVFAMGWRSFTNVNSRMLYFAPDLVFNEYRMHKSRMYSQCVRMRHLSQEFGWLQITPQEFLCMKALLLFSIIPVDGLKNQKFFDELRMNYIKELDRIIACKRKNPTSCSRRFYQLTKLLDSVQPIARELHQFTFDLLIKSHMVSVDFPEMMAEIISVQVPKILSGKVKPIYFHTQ
Format: functional
What AC50 was measured for each of the following?

# compound, target-or-test-system, AC50
rows = [
    ("COc1ccc(CC2c3cc(OC)c(OC)cc3CC[N+]2(C)CCC(=O)OCCCCCOC(=O)CC[N+]2(C)CCc3cc(OC)c(OC)cc3C2Cc2ccc(OC)c(OC)c2)cc1OC (stereo not drawn)", "Androgen receptor (Rattus norvegicus)", "> 30 µM"),
    ("COc1ccccc1OCCNCC(O)COc1cccc2[nH]c3ccccc3c12 (stereo not drawn) [CARVEDILOL]", "Androgen receptor (Rattus norvegicus)", "> 30 µM"),
]

Query string: Requested read-out: AC50. Entry: CCN(CC)C(=O)Nc1ccc(OCC(O)CNC(C)(C)C)c(C(C)=O)c1 (stereo not drawn) [CELIPROLOL]
Result string: > 30 µM
